Ref: patent US9255103B2

# measured.on: human mGluR5a receptor (Homo sapiens)
# Sequence (P41594 21-1180 isoform P41594-2 limits assumed): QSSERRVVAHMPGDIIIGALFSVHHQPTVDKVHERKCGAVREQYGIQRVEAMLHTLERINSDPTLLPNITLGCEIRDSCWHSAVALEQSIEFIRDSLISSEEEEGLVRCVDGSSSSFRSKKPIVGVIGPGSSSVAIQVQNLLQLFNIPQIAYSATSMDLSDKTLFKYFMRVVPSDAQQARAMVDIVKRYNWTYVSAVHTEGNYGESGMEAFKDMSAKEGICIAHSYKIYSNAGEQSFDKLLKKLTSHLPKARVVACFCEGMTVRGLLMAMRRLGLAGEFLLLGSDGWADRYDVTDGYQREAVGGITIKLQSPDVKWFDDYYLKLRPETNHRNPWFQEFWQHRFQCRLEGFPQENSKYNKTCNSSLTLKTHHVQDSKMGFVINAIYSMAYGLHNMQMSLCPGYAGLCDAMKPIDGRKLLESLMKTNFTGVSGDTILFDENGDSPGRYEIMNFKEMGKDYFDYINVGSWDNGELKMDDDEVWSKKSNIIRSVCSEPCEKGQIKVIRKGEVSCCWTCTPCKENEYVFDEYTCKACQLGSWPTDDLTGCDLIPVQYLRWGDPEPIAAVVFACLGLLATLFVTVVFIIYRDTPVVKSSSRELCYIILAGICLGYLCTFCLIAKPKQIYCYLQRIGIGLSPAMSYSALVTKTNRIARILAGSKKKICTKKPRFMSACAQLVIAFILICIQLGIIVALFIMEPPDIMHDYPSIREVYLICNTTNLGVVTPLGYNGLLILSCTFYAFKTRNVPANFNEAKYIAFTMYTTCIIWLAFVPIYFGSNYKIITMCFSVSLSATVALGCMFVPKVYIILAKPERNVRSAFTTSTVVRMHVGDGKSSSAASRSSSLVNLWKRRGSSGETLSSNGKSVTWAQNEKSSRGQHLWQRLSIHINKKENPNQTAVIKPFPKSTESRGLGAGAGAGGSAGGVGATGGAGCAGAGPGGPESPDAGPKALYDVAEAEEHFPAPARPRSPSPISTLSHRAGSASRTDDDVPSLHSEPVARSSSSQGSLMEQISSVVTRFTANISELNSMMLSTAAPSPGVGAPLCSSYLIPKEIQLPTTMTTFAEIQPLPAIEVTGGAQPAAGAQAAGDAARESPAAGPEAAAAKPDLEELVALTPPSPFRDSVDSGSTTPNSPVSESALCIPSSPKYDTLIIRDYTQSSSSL
# experiment.summary: Cell-based functional Ca2+ mobilization assay (FDSS), potentiation of glutamate EC20 response in H10H cell line
# condition: HEK cells transfected with human mGluR5 (H10H), presence of glutamate EC20; read-out: EC50
Quick list: pEC50 per entry.
Kindly note that pEC50 refers to -log10 of the concentration in mol/L and answer with the value alone.

Check out these entries, answers already filled in.
O=C(c1ncc(F)cc1F)N1CCn2nc(COc3cccc(F)c3)cc2C1 [Compound 21]; 5.89
N#Cc1cc(C(=O)N2CCn3nc(COc4cccc(F)c4)cc3C2)ccc1F [Compound 33]; 5.98

We next turn to a different compound, shown below.
(Q) Looking for the measured pEC50 of CC1CN(C(=O)c2ccc(F)cc2)Cc2cc(COc3ccccc3)nn21 (stereo not drawn) [Compound 40] , can you help?
(A) 6.15
